This listing pairs molecules with measured Ratio IC50.
# Tested on: Eca-109/VCR
# procedureText: Reversal of vincristine resistance in human Eca-109/VCR cells assessed as reversal fold by measuring ratio of vincristine IC50 to vincristine IC50 in presence of test compound at 5 uM incubated for 48 hrs by CCK8 assay
# Type: functional
measuredProperty: Ratio IC50

>>> observedresult("CCOC(=O)C1C2c3ccc([N+](=O)[O-])cc3C(=O)C2C(c2ccccc2Br)C12C(=O)N(C)c1ccccc12 (centres undefined)")
1.8
>>> observedresult("CCOC(=O)C1C2c3ccc([N+](=O)[O-])cc3C(=O)C2C(c2ccco2)C12C(=O)N(C)c1ccccc12 (centres undefined)")
12.7
>>> observedresult("CCOC(=O)C1C2c3ccc([N+](=O)[O-])cc3C(=O)C2C(c2ccc(C)cc2)C12C(=O)N(C)c1ccccc12 (centres undefined)")
24.7
>>> observedresult("O=C1c2cc([N+](=O)[O-])ccc2C2C1C(c1ccccc1)C1(Cc3ccccc3C1=O)C2c1ccccc1 (centres undefined)")
34.8

* * *

# Tested on: Eca-109/VCR
# procedureText: Reversal of vincristine resistance in human Eca-109/VCR cells assessed as reversal fold by measuring ratio of vincristine IC50 to vincristine IC50 in presence of test compound at 5 uM incubated for 48 hrs by CCK8 assay
# Format: functional
measuredProperty: Ratio IC50

>>> observedresult("CCOC(=O)C1C2c3ccc(Br)cc3C(=O)C2C(c2ccccc2)C12C(=O)N(C)c1ccccc12 (stereo not drawn)")
16.7
>>> observedresult("CCOC(=O)C1C2c3ccc([N+](=O)[O-])cc3C(=O)C2C(c2cccc(C)c2)C12C(=O)N(C)c1ccccc12 (stereo not drawn)")
56.7
>>> observedresult("CCOC(=O)C1C2c3ccc([N+](=O)[O-])cc3C(=O)C2C(c2ccc(Br)cc2)C12C(=O)N(C)c1ccccc12 (stereo not drawn)")
11.7
>>> observedresult("CN1C(=O)[C@@]2(c3cc(Cl)ccc31)[C@H](C(=O)NC(C)(C)C)[C@H]1c3ccc([N+](=O)[O-])cc3C(=O)[C@H]1[C@@H]2c1ccccc1")
727.2
>>> observedresult("COc1ccc(CCN(C)CCCC(C#N)(c2ccc(OC)c(OC)c2)C(C)C)cc1OC (stereo not drawn) [VERAPAMIL]")
107.9
>>> observedresult("CN1C(=O)[C@@]2(c3cc(Cl)ccc31)[C@H](c1ccccc1)[C@H]1C(=O)c3cc([N+](=O)[O-])ccc3[C@H]1[C@@H]2C(=O)NC(C)(C)C")
471.3
>>> observedresult("O=C1c2cc([N+](=O)[O-])ccc2C2C1C(c1ccccc1)C1(C(=O)c3ccccc3C1=O)C2c1ccccc1 (stereo not drawn)")
57.1
>>> observedresult("CCOC(=O)C1C2c3ccc([N+](=O)[O-])cc3C(=O)C2C(c2ccc(C(F)(F)F)cc2)C12C(=O)N(C)c1ccccc12 (stereo not drawn)")
39.2

* * *

# Tested on: Eca-109/VCR
# procedureText: Reversal of vincristine resistance in human Eca-109/VCR cells assessed as reversal fold by measuring ratio of vincristine IC50 to vincristine IC50 in presence of test compound at 5 uM incubated for 48 hrs by CCK8 assay
# Type: functional
measuredProperty: Ratio IC50

>>> observedresult("CCOC(=O)C1C2c3ccc([N+](=O)[O-])cc3C(=O)C2C(c2ccccc2C)C12C(=O)N(C)c1ccccc12 (stereo not given)")
14.7
>>> observedresult("CCOC(=O)C1C2c3ccc(-n4cc(-c5ccccc5)nn4)cc3C(=O)C2C(c2ccccc2)C12C(=O)N(C)c1ccccc12 (stereo not given)")
56.1
>>> observedresult("CCOC(=O)C1C2c3ccc([N+](=O)[O-])cc3C(=O)C2C(c2cccc(OC)c2)C12C(=O)N(C)c1ccccc12 (stereo not given)")
3
>>> observedresult("CCOC(=O)C1C2c3ccc([N+](=O)[O-])cc3C(=O)C2C(C2CC2)C12C(=O)N(C)c1ccccc12 (stereo not given)")
2.5
>>> observedresult("O=C1c2cc([N+](=O)[O-])ccc2C2C1C(c1ccccc1)C([N+](=O)[O-])C2c1ccccc1 (stereo not given)")
49.9
>>> observedresult("CCOC(=O)C1C2c3c(cccc3[N+](=O)[O-])C(=O)C2C(c2ccccc2)C12C(=O)N(C)c1ccccc12 (stereo not given)")
10.5
>>> observedresult("O=C1c2cc([N+](=O)[O-])ccc2C2C1C(c1ccccc1)C1(Oc3ccccc3C1=O)C2c1ccccc1 (stereo not given)")
15.2
>>> observedresult("COC(=O)C1C(C(=O)c2ccccc2)C(c2ccccc2)C2C(=O)c3cc([N+](=O)[O-])ccc3C12 (stereo not given)")
12.3
>>> observedresult("CCOC(=O)C1C2c3ccc([N+](=O)[O-])cc3C(=O)C2C(c2ccccc2)C12C(=O)N(C)c1cc(OC)ccc12 (stereo not given)")
53.2
>>> observedresult("CN1C(=O)C2(c3ncccc31)C(C(=O)OC(C)(C)C)C1c3ccc([N+](=O)[O-])cc3C(=O)C1C2c1ccccc1 (stereo not given)")
33.6
>>> observedresult("CN1C(=O)C2(c3ccccc31)C(C(=O)OC(C)(C)C)C1c3ccc([N+](=O)[O-])cc3C(=O)C1C2c1ccccc1 (stereo not given)")
56.1
>>> observedresult("CCOC(=O)C1C2c3ccc([N+](=O)[O-])cc3C(=O)C2C(c2ccccc2)C12C(=O)N(C)c1ccc(OC)cc12 (stereo not given)")
16.4
>>> observedresult("CN1C(=O)C2(c3cc(F)ccc31)C(C(=O)OC(C)(C)C)C1c3ccc([N+](=O)[O-])cc3C(=O)C1C2c1ccccc1 (stereo not given)")
6.6
>>> observedresult("CN1C(=O)C2(c3cc(Br)ccc31)C(C(=O)OC(C)(C)C)C1c3ccc([N+](=O)[O-])cc3C(=O)C1C2c1ccccc1 (stereo not given)")
2.9
>>> observedresult("CN1C(=O)C2(c3cc(Cl)ccc31)C(C(=O)OC(C)(C)C)C1c3ccc([N+](=O)[O-])cc3C(=O)C1C2c1ccccc1 (stereo not given)")
388.1
